binding signal by entry:
Target: SIX1-Q177R homeodomain (human, UniProt Q15475 108-198, Q177R)
Sequence: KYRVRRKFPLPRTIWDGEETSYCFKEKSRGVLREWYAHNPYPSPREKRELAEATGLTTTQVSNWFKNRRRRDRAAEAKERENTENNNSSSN
Experiment: universal protein binding microarray; Universal all-10-mer PBM (8x60K, AMADID 030236), 300 nM GST-tagged protein, Alexa Fluor 488 anti-GST; buffer, salt, pH and temperature not stated (as in Berger); high values mean tight binding
Conditions: protein: ivt; tags: N-terminal GST; dsDNA, one strand shown
In all, about 33,000 sequences were measured (“e-score”: median about -0.05, highest 2% from about 0.38 on). For the sample, the highest values were picked, then their nearest neighbours and some sequences at random.

{"seq_string": "AGAAGGTG", "binding signal": "0.302 E-score"}
{"seq_string": "CCACTACA", "binding signal": "0.298 E-score"}
{"seq_string": "ACCCCGCT", "binding signal": "0.209 E-score"}
{"seq_string": "GGTGTCAC", "binding signal": "0.491 E-score"}
{"seq_string": "CAATAGTG", "binding signal": "0.17 E-score"}
{"seq_string": "ACACTATG", "binding signal": "0.328 E-score"}
{"seq_string": "ACACTATA", "binding signal": "0.322 E-score"}
{"seq_string": "CCCATACA", "binding signal": "0.192 E-score"}
{"seq_string": "ACCCTATC", "binding signal": "0.17 E-score"}
{"seq_string": "ACACCGCT", "binding signal": "0.466 E-score"}
{"seq_string": "TACCCCCA", "binding signal": "0.304 E-score"}
{"seq_string": "CCGGGTAA", "binding signal": "0.177 E-score"}
{"seq_string": "GCACCGCA", "binding signal": "0.169 E-score"}
{"seq_string": "TGCACCCA", "binding signal": "0.153 E-score"}
{"seq_string": "ACACTAAT", "binding signal": "0.333 E-score"}
{"seq_string": "CCGTGTAG", "binding signal": "0.446 E-score"}
{"seq_string": "TACACCCA", "binding signal": "0.471 E-score"}
{"seq_string": "ACACCGCA", "binding signal": "0.48 E-score"}
{"seq_string": "ATATACCG", "binding signal": "0.15 E-score"}
{"seq_string": "ATACCGCA", "binding signal": "0.179 E-score"}
{"seq_string": "ACTCCGGG", "binding signal": "0.29 E-score"}
{"seq_string": "ACTCCCTC", "binding signal": "0.156 E-score"}
{"seq_string": "ACGCCGCC", "binding signal": "0.153 E-score"}
{"seq_string": "TGTGCACA", "binding signal": "0.21 E-score"}
{"seq_string": "GCGGGTAA", "binding signal": "0.164 E-score"}
{"seq_string": "CGTGTCAC", "binding signal": "0.462 E-score"}
{"seq_string": "CCGGGTAG", "binding signal": "0.169 E-score"}
{"seq_string": "ACTCCGCT", "binding signal": "0.185 E-score"}
{"seq_string": "CGAGTCAC", "binding signal": "0.196 E-score"}
{"seq_string": "CACCGTCA", "binding signal": "0.209 E-score"}
{"seq_string": "AACGGAGT", "binding signal": "0.152 E-score"}
{"seq_string": "CGGCTGAC", "binding signal": "0.174 E-score"}
{"seq_string": "ACACCGCG", "binding signal": "0.481 E-score"}

// provenance: paper PMC10668032
